# ASSAY CONDITIONS: in ethanol, 298.26 K
PARAMETER MEASURED: solubility (mole fraction)

>>> result_value("COC(=O)/C=C(\\C)N[C@@H](C(=O)[O-])c1ccc(O)cc1.[K+]")
0.000437

###

# ASSAY CONDITIONS: in n-propanol, 318.29 K
PARAMETER MEASURED: solubility (mole fraction)

>>> result_value("COC(=O)/C=C(\\C)N[C@@H](C(=O)[O-])c1ccc(O)cc1.[K+]")
0.00028

###

# ASSAY CONDITIONS: in sec-butanol, 298.24 K
PARAMETER MEASURED: solubility (mole fraction)

>>> result_value("COC(=O)/C=C(\\C)N[C@@H](C(=O)[O-])c1ccc(O)cc1.[K+]")
"4.38e-05"

Reference source: BigSolDB 2.1
